- systemUnderTest: human Y2 receptor (human) (UniProt P49146)
- Sequence (P49146 whole entry): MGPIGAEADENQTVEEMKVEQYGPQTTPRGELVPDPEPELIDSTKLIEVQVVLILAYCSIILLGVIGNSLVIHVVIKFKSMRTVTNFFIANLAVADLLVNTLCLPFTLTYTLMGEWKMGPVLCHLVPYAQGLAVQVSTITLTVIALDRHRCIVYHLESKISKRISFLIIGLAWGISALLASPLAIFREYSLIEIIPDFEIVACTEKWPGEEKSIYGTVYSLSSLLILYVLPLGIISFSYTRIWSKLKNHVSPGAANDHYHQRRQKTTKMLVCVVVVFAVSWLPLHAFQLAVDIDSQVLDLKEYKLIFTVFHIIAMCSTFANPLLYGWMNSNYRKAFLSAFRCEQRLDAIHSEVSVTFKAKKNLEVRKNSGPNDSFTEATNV
- assayProtocol: cell-based or functional assay
Non-standard residues stand in square brackets, D forms with d. *: point of attachment. X7 = (tetrahydro-2H-pyran-4-yl)carbamoyl, O=C(NC1CCOCC1)*; 4Pal = N[C@@H](Cc1ccncc1)C(=O)O; Cha = N[C@@H](CC1CCCCC1)C(=O)O; Iva = CC[C@](C)(N)C(=O)O; Aib = CC(C)(N)C(=O)O
quantityKind: GBA EC50 Ratio ([35S]GTPγS binding) (EC50 compound/EC50 PYY(3-36))

Exam item: May I ask what GBA EC50 Ratio ([35S]GTPγS binding) (EC50 compound/EC50 PYY(3-36)) has been recorded for X7-S[dP][Iva][4Pal][Cha][Aib]NK[Aib]TRQR[Cha]-NH2 (SMILES CC[C@](C)(NC(=O)[C@H]1CCCN1C(=O)[C@H](CO)NC(=O)NC1CCOCC1)C(=O)N[C@@H](Cc1ccncc1)C(=O)N[C@@H](CC1CCCCC1)C(=O)NC(C)(C)C(=O)N[C@@H](CC(N)=O)C(=O)N[C@@H](CCCCN)C(=O)NC(C)(C)C(=O)N[C@H](C(=O)N[C@@H](CCCNC(=N)N)C(=O)N[C@@H](CCC(N)=O)C(=O)N[C@@H](CCCNC(=N)N)C(=O)N[C@@H](CC1CCCCC1)C(N)=O)[C@@H](C)O) [(Tetrahydro-2H-pyran-4-yl)carbamoyl-[D-Pro24, Iva25, Pya(4)26, Cha27,36, Aib28,31, Lys30]-PYY(23-36)] ?
Marked response: 1.8
